# TESTED_SYSTEM: T1, recombinant biotinylated human PAR2 extracellular domain (residues 1-75), N-terminal AviTag, C-terminal Flag … (human, UniProt P55085 26-75, biotin on the AviTag (enzymatic biotinylation))
# T1 construct: also called Bio-human-PAR2 ECD; human PAR2 ECD; not shown: N-terminal AviTag (Avidity LLC); C-terminal Flag and poly Histidine tags
# T1 sequence (P55085 26-75): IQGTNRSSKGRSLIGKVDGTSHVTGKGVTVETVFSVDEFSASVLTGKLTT
# EXPERIMENT_DESCRIPTION: HTRF competition with Par0067 IgG, pH 7.4, scFv
Recorded pIC50, one value per entry.
Formally, pIC50 is defined as -log10 of the concentration c, with c in mol/L.

Illustrative cases are given below, each with its answer.
>>> assay_value("PaB670077 scFv (scFv, V domains shown, purified scFv; also called ZZ1OZJ-C11) VH: EVQLLESGGGLVQPGGSLRLSCAASGFTFSSYAMNWVRQAPGKGLEWVSTISYSGSLISYADSVKGRFTISRDNSKNTLYLQMNSLRAEDTAVYYCARINNDPMDVWGQGTLVTVSS VL: SIELTQPPSVSVSPGQTASITCSGDNLGKKYVQWYQQKPGQSPVLVIYDDSNRPSGIPERFSGSNSGNTATLTISGTQAMDEADYYCHHWHGHHTTGETNHFGGGTKLTVL")
7.26
>>> assay_value("PaB670103 scFv (scFv, V domains shown, purified scFv; also called ZZ1RCX-C09) VH: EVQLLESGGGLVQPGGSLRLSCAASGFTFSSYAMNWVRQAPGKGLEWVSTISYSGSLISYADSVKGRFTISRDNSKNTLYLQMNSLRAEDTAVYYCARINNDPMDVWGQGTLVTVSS VL: SIELTQPPSVSVSPGQTASITCSGDNLGKKYVQWYQQKPGQSPVLVIYDDSNRPSGIPERFSGSNSGNTATLTISGTQAMDEADYYCHTWDGHHTTGETNHFGGGTKLTVL")
7.55

Here's the next entry for you.
[Q] What value of measured pIC50 is listed for PaB670085 scFv (scFv, V domains shown, purified scFv; also called ZZ1ODR-A02) VH: EVQLLESGGGLVQPGGSLRLSCAASGFTFSSYAMNWVRQAPGKGLEWVSTISYHGSHISYHHSHKGRFTISRDNSKNTLYLQMNSLRAEDTAVYYCARINNDPMDVWGQGTLVTVSS VL: SIELTQPPSVSVSPGQTASITCSGDNLGKKYVQWYQQKPGQSPVLVIYDDSNRPSGIPERFSGSNSGNTATLTISGTQAMDEADYYCQTWDGNPTTGETNVFGGGTKLTVL ?
[A] 7.32

All figures here come from patent US20180305450A1.
